Target: purified recombinant human PARP (Homo sapiens, UniProt P09874)
Sequence (P09874 whole entry): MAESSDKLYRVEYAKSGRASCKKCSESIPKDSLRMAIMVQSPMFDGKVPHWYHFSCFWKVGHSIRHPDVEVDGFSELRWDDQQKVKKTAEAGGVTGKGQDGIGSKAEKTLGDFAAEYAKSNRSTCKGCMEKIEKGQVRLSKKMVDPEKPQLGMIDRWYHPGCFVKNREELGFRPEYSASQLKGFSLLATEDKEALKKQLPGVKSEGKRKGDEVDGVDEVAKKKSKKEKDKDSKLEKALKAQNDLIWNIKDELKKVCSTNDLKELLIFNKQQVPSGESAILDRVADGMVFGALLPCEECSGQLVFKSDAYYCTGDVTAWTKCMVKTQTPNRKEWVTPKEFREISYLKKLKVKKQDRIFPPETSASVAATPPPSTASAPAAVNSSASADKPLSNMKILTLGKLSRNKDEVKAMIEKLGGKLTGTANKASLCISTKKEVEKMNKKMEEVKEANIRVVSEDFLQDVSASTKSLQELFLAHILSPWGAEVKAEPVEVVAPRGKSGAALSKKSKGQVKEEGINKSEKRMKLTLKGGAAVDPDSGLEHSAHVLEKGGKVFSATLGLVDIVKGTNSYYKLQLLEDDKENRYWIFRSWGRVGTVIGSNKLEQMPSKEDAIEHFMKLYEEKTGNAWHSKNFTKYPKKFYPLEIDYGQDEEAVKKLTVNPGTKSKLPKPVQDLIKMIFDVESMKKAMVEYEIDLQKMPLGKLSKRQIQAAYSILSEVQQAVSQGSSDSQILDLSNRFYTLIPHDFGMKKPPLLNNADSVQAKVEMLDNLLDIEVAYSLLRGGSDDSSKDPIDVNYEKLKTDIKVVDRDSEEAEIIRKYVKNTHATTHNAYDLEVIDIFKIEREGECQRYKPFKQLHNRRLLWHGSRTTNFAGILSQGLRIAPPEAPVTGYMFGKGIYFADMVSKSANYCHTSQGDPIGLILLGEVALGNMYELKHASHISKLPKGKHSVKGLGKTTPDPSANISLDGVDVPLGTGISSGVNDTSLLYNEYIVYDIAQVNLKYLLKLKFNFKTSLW
Assay: PARP enzyme assay (IC50), [3H]NAD incorporation
Conditions: approximate values, read-out: Inhibition IC50
pIC50: −log10 of the molar value.
readoutType: pIC50

> print(dat)
                                    compound  readouttype  observedresult
 1     CC(=O)Nc1ccc2[nH]c(=O)c3cccc4c3c2c1C4        pIC50            7.30
 2  O=c1[nH]c2cc(F)cc3c2c2c(cc(F)cc12)C3O (stereo not shown)        pIC50            7.00
 3  O=c1[nH]c2ccc(S(=O)(=O)N3CCN(c4ccccn4)CC3)c3c2c2c(cccc12)C3        pIC50            6.42
 4  O=c1[nH]c2ccc(S(=O)(=O)NCCc3ccncc3)c3c2c2c(cccc12)C3        pIC50            7.15
 5            O=c1[nH]c2cccc3c2c2c(cccc12)C3        pIC50            7.00
 6  CN1CCN(S(=O)(=O)c2ccc3[nH]c(=O)c4cccc5c4c3c2C5)CC1        pIC50            6.89
 7           Nc1ccc2[nH]c(=O)c3cccc4c3c2c1C4        pIC50            7.22
 8  O=c1[nH]c2ccc(S(=O)(=O)O)c3c2c2c(cccc12)C3        pIC50            6.96
 9  O=c1[nH]c2cccc3c2c2c(cccc12)C3O (stereo not shown)        pIC50            6.92
10  CC(=O)OC1c2cccc3[nH]c(=O)c4cccc1c4c23 (stereo not shown)        pIC50            6.09
11  O=c1[nH]c2ccc([N+](=O)[O-])c3c2c2c(cccc12)C3        pIC50            6.95
12  CC(=O)OC1c2cc(F)cc3[nH]c(=O)c4cc(F)cc1c4c23 (stereo not shown)        pIC50            6.44
13    O=c1[nH]c2cc(F)cc3c(=O)c4cc(F)cc1c4c23        pIC50            7.52
14   O=c1[nH]c2cc(Cl)cc3[nH]c4cc(Cl)cc1c4c23        pIC50            7.70
15  O=c1[nH]c2ccc(S(=O)(=O)NCCN3CCOCC3)c3c2c2c(cccc12)C3        pIC50            7.15
16  O=c1[nH]c2ccc(S(=O)(=O)NCCN3CCCCC3)c3c2c2c(cccc12)C3        pIC50            7.30
17          O=c1[nH]c2cccc3c(=O)c4cccc1c4c23        pIC50            7.15
18  O=c1[nH]c2ccc(S(=O)(=O)N3CCOCC3)c3c2c2c(cccc12)C3        pIC50            7.40
19  O=C(Nc1ccc2[nH]c(=O)c3cccc4c3c2c1C4)c1cccc(F)c1        pIC50            7.10

# credit: patent US6545011B2
